The measured values listed here are drawn from PubChem BioAssay (NCI).

The following compounds are listed with their measured log10 TGI values.
tested on: NCI-H23 lung; experiment: NCI tumour cell line growth inhibition, 48 h
propertyMeasured: log10 TGI (log10 of the value in µM)

>  <compound>
O=C(O)[C@H](CCC[C@H]1C(=O)O[C@H](c2ccccc2)[C@H](c2ccccc2)N1C(=O)OCc1ccccc1)N[C@@H](c1ccccc1)[C@H](O)c1ccccc1

>  <propertyMeasured>
log10 TGI

>  <observedValue>
1.93

$$$$
>  <compound>
Cc1[nH]c2cc(F)ccc2c1-c1nc2c3cccnc3c3ncccc3c2[nH]1

>  <propertyMeasured>
log10 TGI

>  <observedValue>
0.28

$$$$
>  <compound>
CC(C)(C)N/N=C(\C(=O)NC1=C(Cl)C(=O)c2ccccc2C1=O)C1C=CCS1(=O)=O (stereo not given)

>  <propertyMeasured>
log10 TGI

>  <observedValue>
1.38

$$$$
>  <compound>
O=C(CCCN1CCC(C(O)c2ccc(F)cc2)CC1)c1ccc(F)cc1 (stereo not given)

>  <propertyMeasured>
log10 TGI

>  <observedValue>
2.13

$$$$
>  <compound>
CC(=O)NC(C=O)C(O[C@H](C)C(=O)NC(C)C(=O)NC(CCC(N)=O)C(=O)OCc1ccccc1)C(O)C(O)COC(=O)CCNc1c2ccccc2nc2cccc([N+](=O)[O-])c12 (stereo not given in full)

>  <propertyMeasured>
log10 TGI

>  <observedValue>
0.98

$$$$
>  <compound>
Cc1ccc2nc(-c3ccc(C(C)(C)C)cc3)oc(=O)c2c1

>  <propertyMeasured>
log10 TGI

>  <observedValue>
1.83

$$$$
>  <compound>
CCSC[C@@H]1C[C@](O)(c2ccc(F)cc2)[C@@H](c2ccc(F)cc2)O1

>  <propertyMeasured>
log10 TGI

>  <observedValue>
1.67

$$$$
>  <compound>
O=C1c2cccnc2C(=O)c2c1c(C(=O)OCCCN1CCCCC1)c1ccccn21

>  <propertyMeasured>
log10 TGI

>  <observedValue>
-1.59

$$$$

----------
tested on: EKVX NSCLC; test: NCI tumour cell line growth inhibition, 48 h

>  <molecule>
Cc1cccc2c3c(sc12)C(c1ccc(F)cc1)C(C#N)=C(N)O3 (configuration not stated)

>  <limitQualifier>
=

>  <TGI [µM]>
17.6

$$$$
>  <molecule>
Cc1ccc(NC(=O)CCc2n[nH]c(=S)o2)cc1

>  <limitQualifier>
>

>  <TGI [µM]>
100

$$$$
>  <molecule>
CCC(C)C(=O)OCC(=O)c1ccc(-c2ccccc2)cc1 (configuration not stated)

>  <limitQualifier>
=

>  <TGI [µM]>
84.4

$$$$
>  <molecule>
Cc1ccc(S(=O)(=O)N/N=C/C(C)C)cc1

>  <limitQualifier>
>

>  <TGI [µM]>
100

$$$$
>  <molecule>
CC1(C)COC2=C(C1)C(=O)c1ccccc1C2=O

>  <limitQualifier>
=

>  <TGI [µM]>
3.59

$$$$
>  <molecule>
COc1cc2c(cc1OC)C(=O)/C(=C/c1cc(C)cc(C)c1)C2

>  <limitQualifier>
>

>  <TGI [µM]>
100

$$$$
>  <molecule>
COc1nc2ccc(COc3ccc(C(=O)O)cc3)cc2nc1OC

>  <limitQualifier>
>

>  <TGI [µM]>
100

$$$$

----------
test system: CAKI-1 renal; test: NCI tumour cell line growth inhibition, 48 h
Reported values of TGI for individual entries

>  <compound>
O=C(O)c1c(Br)c(Br)c(Br)c(Br)c1C1c2ccc(O)cc2Oc2cc(O)ccc21

>  <TGI>
> 100 µM

$$$$
>  <compound>
COC1C(N(C)C)=C(c2ccccc2)C(=O)N2CCc3ccccc3C12 (stereo not drawn)

>  <TGI>
> 100 µM

$$$$
>  <compound>
Cl.Fc1c[c-]c(-c2ccccn2)c(F)c1.[Pt].c1ccc([PH+](C[PH+](c2ccccc2)c2ccccc2)c2ccccc2)cc1

>  <TGI>
0.839 µM

$$$$
>  <compound>
C[C@]12CC(c3ccccc3O1)C(C(=O)Nc1nc(C34CC5CC(CC(C5)C3)C4)cs1)C(=O)N2 (stereo partly drawn)

>  <TGI>
> 100 µM

$$$$
>  <compound>
CC(=O)O[C@H]1CC[C@@]2(C)C(=C/C(=N/OCCN3CCCC3)[C@H]3[C@@H]4CC[C@H](OC(C)=O)[C@@]4(C)CC[C@@H]32)C1

>  <TGI>
> 100 µM

$$$$
>  <compound>
CCCCCCCCCCCc1c(O)c(=O)c2c(oc3c(=O)c(CCCCCCCCCCC)c(O)c(=O)c3n2-c2ccc(N(C)C)cc2)c1=O

>  <TGI>
39.7 µM

$$$$
>  <compound>
C(=Nc1ccc(-c2nc3ccccc3s2)cc1)c1ccc[nH]1

>  <TGI>
78.3 µM

$$$$
>  <compound>
COc1ccc(C(=O)c2sc3nc(-c4cccs4)ccc3c2N)cc1OC

>  <TGI>
> 100 µM

$$$$
